Provenance of the data: PubChem BioAssay AID1963873

The following compounds are shown together with reported viability, T/C values.
- Tested on: 276233-004-R-J1-PDC KRAS spheroids with HUVEC/MSC, viability
- procedure.summary: Anticancer human tumor 276233-004-R-J1-PDC patient-derived colon adenocarcinoma cell line growth inhibition [KRAS2]
- cond: second compound 0.1 µM; first compound 1 µM; stronger effect = lower value

compound	u	viability, T/C
CC(=O)OC12COC1CC(O)C1(C)C(=O)C(O)C3=C(C)C(OC(=O)C(O)C(NC(=O)OC(C)(C)C)c4ccccc4)CC(O)(C(OC(=O)c4ccccc4)C21)C3(C)C (centres undefined) + CNCc1ccccc1-c1csc(C(C)Nc2nc(C)nc3cc(OC)c(OC)cc23)c1	%	105
CC(=O)OC12COC1CC(O)C1(C)C(=O)C(O)C3=C(C)C(OC(=O)C(O)C(NC(=O)OC(C)(C)C)c4ccccc4)CC(O)(C(OC(=O)c4ccccc4)C21)C3(C)C (centres undefined) + CC1OCC2(CCN(c3cnc(Sc4ccnc(N)c4Cl)c(N)n3)CC2)C1N	%	66.5
CC(=O)OC12COC1CC(O)C1(C)C(=O)C(O)C3=C(C)C(OC(=O)C(O)C(NC(=O)OC(C)(C)C)c4ccccc4)CC(O)(C(OC(=O)c4ccccc4)C21)C3(C)C (centres undefined) + COc1cc2nc(C)nc(NC(C)c3cc(N)cc(C(F)(F)F)c3)c2cc1OC1CCOC1	%	86.1
COc1cc2nccc(Oc3ccc(NC(=O)C4(C(=O)Nc5ccc(F)cc5)CC4)cc3)c2cc1OC + COc1cc2nc(C)nc(NC(C)c3cc(N)cc(C(F)(F)F)c3)c2cc1OC1CCOC1	%	92

---

- Tested on: 276233-004-R-J1-PDC KRAS spheroids with HUVEC/MSC, viability
- procedure.summary: Anticancer human tumor 276233-004-R-J1-PDC cell line growth inhibition [KRAS2];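 also: cells exposed to agents for seven days before viability read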
- cond: curve of first compound; second compound 3.16 µM

compound	value.operator	IC50, µM
CC1(C)CCC(CN2CCN(c3ccc(C(=O)NS(=O)(=O)c4ccc(NCC5CCOCC5)c([N+](=O)[O-])c4)c(Oc4cnc5[nH]ccc5c4)c3)CC2)=C(c2ccc(Cl)cc2)C1 + C=CC(=O)N1CCN(c2nc(=O)n(-c3c(C)ccnc3C(C)C)c3nc(-c4c(O)cccc4F)c(F)cc23)C(C)C1	=	9.15
CN(C)C/C=C/C(=O)Nc1cc2c(Nc3ccc(F)c(Cl)c3)ncnc2cc1O[C@H]1CCOC1 + CNCc1ccccc1-c1csc(C(C)Nc2nc(C)nc3cc(OC)c(OC)cc23)c1	<	0.000316
CCN1CCN(Cc2ccc(Nc3ncc(F)c(-c4cc(F)c5nc(C)n(C(C)C)c5c4)n3)nc2)CC1 + C=CC(=O)N1CCN(c2nc(OCC3CCCN3C)nc3c2CCN(c2cccc4cccc(C)c24)C3)CC1CC#N	=	0.0596
CCN1CCN(Cc2ccc(Nc3ncc(F)c(-c4cc(F)c5nc(C)n(C(C)C)c5c4)n3)nc2)CC1 + C=CC(=O)N1CCN(c2nc(=O)n(-c3c(C)ccnc3C(C)C)c3nc(-c4c(O)cccc4F)c(F)cc23)C(C)C1	>	1
COc1cc2nccc(Oc3ccc(NC(=O)C4(C(=O)Nc5ccc(F)cc5)CC4)cc3)c2cc1OC + C=CC(=O)N1CCN(c2nc(OCC3CCCN3C)nc3c2CCN(c2cccc4cccc(C)c24)C3)CC1CC#N	=	1.68
